Target or test system: T1, mouse NMUR1-ATG (mouse, UniProt O55040 1-428)
T1 sequence (looked up): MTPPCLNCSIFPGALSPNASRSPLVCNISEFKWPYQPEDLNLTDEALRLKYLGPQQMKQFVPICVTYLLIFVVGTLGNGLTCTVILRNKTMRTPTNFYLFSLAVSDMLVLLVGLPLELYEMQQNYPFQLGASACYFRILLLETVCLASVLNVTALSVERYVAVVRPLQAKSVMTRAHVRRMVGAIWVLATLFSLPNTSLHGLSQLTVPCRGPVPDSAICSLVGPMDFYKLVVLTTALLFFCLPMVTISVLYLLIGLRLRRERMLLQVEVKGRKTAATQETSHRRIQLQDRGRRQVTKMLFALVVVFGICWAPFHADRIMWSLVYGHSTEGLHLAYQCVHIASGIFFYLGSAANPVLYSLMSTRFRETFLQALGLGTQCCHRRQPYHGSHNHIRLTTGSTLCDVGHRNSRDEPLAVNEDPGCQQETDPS
Protocol summary: cell-based or functional assay
No end group written: not given here. *: point of attachment. (PEG)2 40 kDa = branched PEG of 40 kDa linked via the Cys side-chain thiol (code C2 = Cys(PEG)2 40 kDa); Cholesteroyl = cholesterol linked to a cysteine residue via the side-chain thiol; Succinimide(1-Et,3-yl) = CCN1C(=O)CC(*)C1=O; Palmitoyl = CCCCCCCCCCCCCCCC(=O)*
Measured endpoint: % Activity (FLIPR) (%)
Just the number in %, nothing appended.

1) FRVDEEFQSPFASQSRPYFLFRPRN-NH2 [NMU4] | 100
2) Ac-C(Succinimide(1-Et,3-yl))C(Succinimide(1-Et,3-yl))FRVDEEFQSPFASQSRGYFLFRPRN-NH2 [NMU22] | 100
3) Ac-C(PEG 20 kDa)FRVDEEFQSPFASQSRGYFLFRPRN-NH2 [NMU21] | 100

Query block: Supply reported % Activity (FLIPR) belonging to this binder: Ac-C((PEG)2 40 kDa)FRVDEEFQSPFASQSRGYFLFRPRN-NH2 [NMU12]
Result block: 98.4

Query block: Supply reported % Activity (FLIPR) belonging to this binder: Ac-C(Cholesteroyl)GYFLFRPRN-NH2 [NMU11]
Result block: 81.3

Query block: Supply reported % Activity (FLIPR) belonging to this binder: Ac-C(Cholesteroyl)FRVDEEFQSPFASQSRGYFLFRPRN-NH2 [NMU10]
Result block: 76.8

Query block: Supply reported % Activity (FLIPR) belonging to this binder: Ac-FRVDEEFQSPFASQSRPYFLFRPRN-NH2 [NMU5]
Result block: 100

Query block: Supply reported % Activity (FLIPR) belonging to this binder: Palmitoyl-C(Succinimide(1-Et,3-yl))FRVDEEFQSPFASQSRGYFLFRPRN-NH2 [NMU24]
Result block: 81.4

Query block: Supply reported % Activity (FLIPR) belonging to this binder: Ac-C(Succinimide(1-Et,3-yl))ASQSRGYFLFRPRN-NH2 (SMILES CCN1C(=O)CC(SC[C@H](NC(C)=O)C(=O)N[C@@H](C)C(=O)N[C@@H](CO)C(=O)N[C@@H](CCC(N)=O)C(=O)N[C@@H](CO)C(=O)N[C@@H](CCCNC(=N)N)C(=O)NCC(=O)N[C@@H](Cc2ccc(O)cc2)C(=O)N[C@@H](Cc2ccccc2)C(=O)N[C@@H](CC(C)C)C(=O)N[C@@H](Cc2ccccc2)C(=O)N[C@@H](CCCNC(=N)N)C(=O)N2CCC[C@H]2C(=O)N[C@@H](CCCNC(=N)N)C(=O)N[C@@H](CC(N)=O)C(N)=O)C1=O) [NMU17]
Result block: 100

The reported numbers originate from patent US20070244048A1.
